Tested on: A549 cells
Test: Cell cytotoxicity assay, A549 cells
Type: cell-based
Conditions: Homo sapiens, 1 μM compound, 72 hours, percent cytotoxicity against DMSO control, read-out: Cell toxicity A549 cells 1 μM
Binned cytotoxicity at 1 µM; ranges: L = under 10%, M = from 10% up to 20%, H = 20% and over

Req: Hi there! Could you help me figure out the category for COc1cc(Nc2nc(N3CCN(c4ncnc5ccccc45)CC3)cc(C(F)(F)F)n2)cc(OC)c1 please?
Resp: H

Req: Hi there! Could you help me figure out the category for COc1cc(Nc2nc(C)cc(N3CCN(c4ccnc5cc(Cl)ccc45)CC3)n2)cc(C(F)(F)F)c1 please?
Resp: L

Req: Hi there! Could you help me figure out the category for COc1cncc(Nc2nc(N3CCN(c4ccnc5cc(Cl)ccc45)CC3)cc(C(F)(F)F)n2)c1 please?
Resp: H

Req: Hi there! Could you help me figure out the category for COc1cc(F)cc(Nc2nc(C)cc(N3CCN(c4ccnc5cc(Cl)ccc45)CC3)n2)c1 please?
Resp: H

Req: Hi there! Could you help me figure out the category for Cc1cc(N2CCN(c3ccnc4cc(Cl)ccc34)CC2)nc(Nc2ccccc2)n1 please?
Resp: L

Req: Hi there! Could you help me figure out the category for Cc1cc(N2CCN(c3ccnc4cc(Cl)ccc34)CC2)nc(N2CCCCCC2)n1 please?
Resp: M

Req: Hi there! Could you help me figure out the category for CN1CCN(c2nc(N3CCN(c4ccnc5cc(Cl)ccc45)CC3)cc(C(F)(F)F)n2)CC1 please?
Resp: M

Req: Hi there! Could you help me figure out the category for FC(F)(F)c1cc(N2CCN(c3ccnc4cc(Cl)ccc34)CC2)nc(Nc2ccncc2)n1 please?
Resp: L

Req: Hi there! Could you help me figure out the category for FC(F)(F)c1cc(N2CCN(c3ccnc4cc(Cl)ccc34)CC2)nc(Nc2ccccc2)n1 please?
Resp: M

Req: Hi there! Could you help me figure out the category for COc1cc(Nc2nc(C)cc(N3CCN(c4ccnc5ccccc45)CC3)n2)cc(OC)c1 please?
Resp: H

Req: Hi there! Could you help me figure out the category for COc1cc(Nc2nc(C)cc(N3CCN(c4ccnc5cc(C(F)(F)F)ccc45)CC3)n2)cc(OC)c1 please?
Resp: H

Req: Hi there! Could you help me figure out the category for COc1cc(Nc2nc(C)cc(N3CCN(c4ncnc5ccccc45)CC3)n2)cc(OC)c1 please?
Resp: H

Req: Hi there! Could you help me figure out the category for COc1cc(Nc2nc(N3CCN(c4ccnc5cc(Cl)ccc45)CC3)cc(C(F)(F)F)n2)cc(C(F)(F)F)c1 please?
Resp: M

Req: Hi there! Could you help me figure out the category for COc1cc(Nc2nc(N3CCN(c4ccnc5ccccc45)CC3)cc(C(F)(F)F)n2)cc(OC)c1 please?
Resp: H

Req: Hi there! Could you help me figure out the category for Fc1cccc(F)c1Nc1nc(N2CCN(c3ccnc4cc(Cl)ccc34)CC2)cc(C(F)(F)F)n1 please?
Resp: L

====

Test system: NCI-H-460
Test: CellTiter Glo assay, NCI-H-460
Type: cell-based
Conditions: Homo sapiens, NCI-H460; 72 hours, 10 point DRC, 100 μM top; read-out: Cytotoxicity IC50 NCI-H-460
RESULT TYPE: pIC50
pIC50 here is simply -log10 of the concentration when that concentration is written in mol/L.

Documented pIC50 of COc1cc(Nc2nc(N3CCN(c4ccnc5cc(Cl)ccc45)CC3)cc(C(F)(F)F)n2)cc(OC)c1 : 5.62

Documented pIC50 of COc1cncc(Nc2nc(N3CCN(c4ccnc5cc(Cl)ccc45)CC3)cc(C(F)(F)F)n2)c1 : 5.47

Documented pIC50 of COc1cc(Nc2nc(N3CCN(c4ccnc5cc(F)ccc45)CC3)cc(C(F)(F)F)n2)cc(OC)c1 : 6.07

Documented pIC50 of COc1cc(Nc2nc(C)cc(N3CCN(c4ccnc5ccccc45)CC3)n2)cc(OC)c1 : 5.63

Documented pIC50 of COc1cc(Nc2nc(N3CCN(c4ccnc5ccccc45)CC3)cc(C(F)(F)F)n2)cc(OC)c1 : 6.03

Documented pIC50 of COc1cc(Nc2nc(C)cc(N3CCN(c4ccnc5cc(F)ccc45)CC3)n2)cc(OC)c1 : 5.74
